# maps each entry to its pIC50
TARGET: MMP-1 (Homo sapiens, UniProt P03956)
Construct: made in house; host or cells: transfected HT-1080 cells (provided by Dr. Harold Welgus, Washington University)
Sequence (P03956 100-469): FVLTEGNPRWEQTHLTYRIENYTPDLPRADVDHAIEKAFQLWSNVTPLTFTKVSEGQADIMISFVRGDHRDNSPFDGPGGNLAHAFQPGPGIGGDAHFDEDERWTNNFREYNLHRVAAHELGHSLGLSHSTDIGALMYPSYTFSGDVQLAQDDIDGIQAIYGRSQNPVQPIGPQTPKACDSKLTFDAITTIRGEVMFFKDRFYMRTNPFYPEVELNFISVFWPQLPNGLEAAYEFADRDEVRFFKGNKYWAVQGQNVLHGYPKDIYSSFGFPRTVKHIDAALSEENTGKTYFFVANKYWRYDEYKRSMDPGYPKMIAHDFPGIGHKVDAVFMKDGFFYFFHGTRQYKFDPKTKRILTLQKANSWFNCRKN
METHOD: In vitro metalloprotease inhibition, fluorogenic MCA peptide substrate
Assay type: biochemical
CONDITION NOTES: Inhibition Table A
pIC50: −log10 of the molar value.

Use the examples below as a reference point.
### Prompt Provide pIC50 value for the following compound: COc1ccc(S(=O)(=O)Cc2ccccc2C(=O)NO)cc1 [Example 6]
### Response < 5.00

### Prompt Retrieve pIC50 measured for O=C(NO)c1c(Cl)cccc1S(=O)(=O)N1CCC(Oc2ccc(C(F)(F)F)cc2)CC1 [Example 20] and print it.
### Response < 5.00

Others:
### Prompt In one line, give reported pIC50 of the entry O=C(Cc1ccccc1S(=O)(=O)c1ccc(Oc2ccccc2)cc1)NO [Example 2] .
### Response 6.05

### Prompt Let me know recorded pIC50 for O=C(NO)c1ccccc1S(=O)(=O)N1CCC(Oc2ccncc2)CC1 [Example 21] , thanks.
### Response < 5.00
